Measured pIC50 of individual entries
Tested on: MCF-7 (breast cancer)
protocol.details: MTT cytotoxicity assay, MCF-7 cells
Assay type: cell-based
condition.label: Homo sapiens, MCF7, 48 h, read-out: IC50 ± SD MCF-7
Remember, pIC50 is on a log scale: it is -log10 of the molar concentration.

Known pIC50 results, listed for orientation:
Query string: I'm curious: which pIC50 was measured for CC(=O)O[C@H]1C[C@H](O[C@H]2[C@@H](O)C[C@H](O[C@H]3[C@@H](O)C[C@H](O[C@H]4CC[C@@]5(C)[C@H](CC[C@@H]6[C@@H]5C[C@@H](O)[C@]5(C)[C@@H](C7=CC(=O)OC7)CC[C@]65O)C4)O[C@@H]3C)O[C@@H]2C)O[C@H](C)[C@H]1O[C@@H]1O[C@H](CO)[C@@H](O)[C@H](O)[C@H]1O [Compound 9, lanatoside C] tested on MCF-7 (breast cancer)?
Result string: 6.62

Query string: Find the measured pIC50: item C[C@]12CC[C@H](O)C[C@H]1CC[C@@H]1[C@@H]2C[C@@H](O)[C@]2(C)[C@@H](C3=CC(=O)OC3)CC[C@]12O , target or system MCF-7 (breast cancer).
Result string: 5.84

Query string: Form field - read-out: pIC50; system: MCF-7 (breast cancer); submitted item: CC(=O)O[C@H]1C(=O)[C@@]2(C)[C@H]([C@H](OC(=O)c3ccccc3)[C@]3(O)C[C@H](OC(=O)[C@H](O)[C@@H](NC(=O)c4ccccc4)c4ccccc4)C(C)=C1C3(C)C)[C@]1(OC(C)=O)CO[C@@H]1C[C@@H]2O [Paclitaxel, reference compound]
Result string: 6.96

# next compound below
Query string: MCF-7 (breast cancer) / pIC50 / CC(=O)O[C@H]1C[C@H](O[C@H]2[C@@H](O)C[C@H](O[C@H]3[C@@H](O)C[C@H](O[C@H]4CC[C@@]5(C)[C@H](CC[C@@H]6[C@@H]5C[C@@H](O)[C@]5(C)[C@@H](C7=CC(=O)OC7)CC[C@]65O)C4)O[C@@H]3C)O[C@@H]2C)O[C@H](C)[C@H]1O : value?
Result string: 6.72
